# particulars: human gut metagenome, 24 h, 2 µM; also: call rule not given here
property.name: Bacterial Biotransformation

C=CCc1ccccc1OCC(O)CNC(C)C (configuration not stated) | Compound metabolized
CCCCC(=O)N(Cc1ccc(-c2ccccc2-c2nnn[nH]2)cc1)[C@H](C(=O)O)C(C)C | Compound metabolized
CC(=O)CC(c1ccccc1)c1c(O)c2ccccc2oc1=O (configuration not stated) | Compound metabolized
O=C1[C@H](CC[C@H](O)c2ccc(F)cc2)[C@@H](c2ccc(O)cc2)N1c1ccc(F)cc1 | Compound NOT metabolized

Bacterial Biotransformation recorded for this compound, C[C@@H]1C[C@H]2[C@@H]3CCC4=CC(=O)C=C[C@]4(C)[C@@]3(F)[C@@H](O)C[C@]2(C)[C@@]1(O)C(=O)CO , is Compound NOT metabolized

Bacterial Biotransformation recorded for this compound, COC(=O)Nc1nc2ccc(C(=O)c3ccccc3)cc2[nH]1 , is Compound metabolized

Bacterial Biotransformation recorded for this compound, CN(C)CCc1c[nH]c2ccc(Cn3cncn3)cc12.O=C(O)c1ccccc1 [RIZATRIPTAN BENZOATE] , is Compound NOT metabolized

Bacterial Biotransformation recorded for this compound, CNS(=O)(=O)Cc1ccc2[nH]cc(CCN(C)C)c2c1.O=C(O)CCC(=O)O [SUMATRIPTAN SUCCINATE] , is Compound NOT metabolized

Bacterial Biotransformation recorded for this compound, CCN1CCCC1CNC(=O)c1cc(S(N)(=O)=O)ccc1OC (configuration not stated) [SULPIRIDE] , is Compound metabolized

Bacterial Biotransformation recorded for this compound, CN(C(=O)CN(CCO)CC(=O)N(C)C(C)(C)Cc1ccccc1)C(C)(C)Cc1ccccc1 , is Compound metabolized

Bacterial Biotransformation recorded for this compound, CN(C)CC(c1ccc(O)cc1)C1(O)CCCCC1.O=C(O)CCC(=O)O (configuration not stated) [DESVENLAFAXINE SUCCINATE] , is Compound NOT metabolized

Bacterial Biotransformation recorded for this compound, CCOC(=O)[C@H](CCc1ccccc1)N[C@H]1CCc2ccccc2N(CC(=O)O)C1=O , is Compound metabolized
